Where these numbers come from: patent US5086066A

System: mice
METHOD SUMMARY: two compartment (dark and light) box test, anxiolytic activity
Assay type: in vivo
CONDITION SUMMARY: 0.1 mg/kg s.c., 40 min after administration; S.E.M. <12.6%, n = 5
MEASURE NAME: Black compartment rearings/5 min (rearings/5 min)
Please state the figure in rearings/5 min; there is no need to write the unit.

### Prompt Supply reported Black compartment rearings/5 min belonging to this compound: CCN1CCCC1CNC(=O)c1cc(Br)c(NC2=NC(C)CN2)cc1OC (stereo not drawn) [Compound 4]
### Response 16

### Prompt For CCN(CC)CCNC(=O)c1cc(Br)c(NC2=NCCN2)cc1OC [Compound 6] , write its Black compartment rearings/5 min.
### Response 39

### Prompt Note Black compartment rearings/5 min for the compound shown: CCN(CC)CCNC(=O)c1cc(Cl)c(NC2=NCCO2)cc1OC [Compound 7]
### Response 16

### Prompt Please give the documented Black compartment rearings/5 min of CCN(CC)CCNC(=O)c1cc(Br)c(NC2=NC(C)CN2)cc1OC (stereo not drawn) [Compound 3]
### Response 18

### Prompt Please supply the value of reported Black compartment rearings/5 min for the item CCN(CC)CCNC(=O)c1cc(Cl)c(NC2=NC(C)CN2)cc1OC (stereo not drawn) [Compound 1]
### Response 14

### Prompt Provide Black compartment rearings/5 min value for the following compound: C=CCN1CCCC1CNC(=O)c1cc(Cl)c(NC2=NC(C)CN2)cc1OC (stereo not drawn) [Compound 2]
### Response 20

----------
System: mice
METHOD SUMMARY: two compartment (dark and light) box test, anxiolytic activity
Format: in vivo
CONDITION SUMMARY: 0.1 mg/kg s.c., 40 min after administration; S.E.M. <12.6%, n = 5
MEASURE NAME: White compartment rearings/5 min
Write down the value, and be sure its unit follows.

Worked examples follow.
- COMPOUND: "CCN1CCCC1CNC(=O)c1cc(Br)c(NC2=NC(C)CN2)cc1OC (stereo not drawn) [Compound 4]"
  White compartment rearings/5 min: "78 rearings/5 min"
- COMPOUND: "CCN(CC)CCNC(=O)c1cc(Cl)c(NC2=NC(C)CN2)cc1OC (stereo not drawn) [Compound 1]"
  White compartment rearings/5 min: "73 rearings/5 min"
- COMPOUND: "CCN(CC)CCNC(=O)c1cc(Cl)c(NC2=NCCO2)cc1OC [Compound 7]"
  White compartment rearings/5 min: "69 rearings/5 min"
- COMPOUND: "C=CCN1CCCC1CNC(=O)c1cc(Cl)c(NC2=NC(C)CN2)cc1OC (stereo not drawn) [Compound 2]"
  White compartment rearings/5 min: "83 rearings/5 min"
- COMPOUND: "CCN(CC)CCNC(=O)c1cc(Br)c(NC2=NCCN2)cc1OC [Compound 6]"
  White compartment rearings/5 min: "40 rearings/5 min"

Switching to the query record.
### Prompt Name the recorded White compartment rearings/5 min of the item CCN(CC)CCNC(=O)c1cc(Br)c(NC2=NC(C)CN2)cc1OC (stereo not drawn) [Compound 3] in your answer.
### Response 97 rearings/5 min

----------
Recorded measurements of LD50, one per entry
METHOD SUMMARY: acute toxicity, median lethal dose (LD50) intravenously
CONDITION SUMMARY: mouse, in vivo, iv, female mice
In your response, the unit should come after the numeric value.

- COMPOUND: "CCN(CC)CCNC(=O)c1cc(Cl)c(NC2=NC(C)CN2)cc1OC (centres unmarked)"
  LD50: "24 mg/kg"
- COMPOUND: "C=CCN1CCCC1CNC(=O)c1cc(Cl)c(NC2=NC(C)CN2)cc1OC (centres unmarked)"
  LD50: "42 mg/kg"
- COMPOUND: "CCN(CC)CCNC(=O)c1cc(Br)c(NC2=NCCN2)cc1OC"
  LD50: "118 mg/kg"
- COMPOUND: "CCN1CCCC1CNC(=O)c1cc(Br)c(NC2=NC(C)CN2)cc1OC (centres unmarked)"
  LD50: "18 mg/kg"

Turning to the following compound.
### Prompt Give the reported value of LD50 for this record: CCN(CC)CCNC(=O)c1cc(Br)c(NC2=NC(C)CN2)cc1OC (centres unmarked)
### Response 24 mg/kg
